In this section we review reported protein stability index values for a set of variants.
B1: PLAGL1 (parent)
chain: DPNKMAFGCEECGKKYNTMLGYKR

variants of: B1; test: protein stability index of a GFP-peptide fusion (GPS, HEK-293T) (PSI 1-6); higher = more stable; conditions: c terminus: a fixed tail appended;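 also: lentivirally expressed fusions sorted by FACS into six bins by GFP to DsRed ratio, PSI derived from sequencing read proportions per bin multiplied by bin number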
Please reply with the number alone, leaving off any unit.

Solved cases (4 shown):
- L20P: 3.11
- N3F: 2.15
- G8W: 2.03
- P2I: 1.88

// protein stability index lookup, variant = N3I , result: 2.19

Form field protein stability index, entry R24P : 2.87

Summary for this variant, K23S : protein stability index is 2.17

This collection of values is drawn from the supplement of paper PMC10567573.
